Test system: rice brown spot fungus
assay-procedure: Test Example 10: seed treatment against brown spot of rice (seed disinfection ratio)
study-conditions: concentration 1000 ppm, seed immersion, 25 days after the seeding
measurement-label: Seed disinfection ratio (%)

INSERT INTO results (compound, measurement_label, obs_value) VALUES
  ('CN(C)C(=S)SSC(=S)N(C)C [TMTD, reference compound]', 'Seed disinfection ratio (%)', 51),
  ('CCOC(=O)c1sc(C(=O)OCC)c(OC(=O)NC)c1OC(=O)NC', 'Seed disinfection ratio (%)', 100),
  ('CCNC(=O)Oc1c(C#N)sc(C(=O)OC)c1OC(=O)NCC', 'Seed disinfection ratio (%)', 97),
  ('CCOC(=O)c1sc(C#N)c(OC(=O)NC)c1OC(=O)NC', 'Seed disinfection ratio (%)', 94),
  ('CCOC(=O)c1sc(C(=O)OCC)c(OC(=O)OC)c1OC(=O)OC', 'Seed disinfection ratio (%)', 100),
  ('CCOC(=O)Oc1c(C#N)sc(C(=O)OCC)c1OC(=O)OCC', 'Seed disinfection ratio (%)', 100),
  ('CNC(=O)Oc1c(C#N)sc(C(=O)OC)c1OC(=O)NC', 'Seed disinfection ratio (%)', 96),
  ('CCCOC(=O)c1sc(C(=O)OCCC)c(OC(C)=O)c1OC(C)=O', 'Seed disinfection ratio (%)', 100);
